# pKd annotations
targetSystem: T1, PUF4 RNA-binding domain (Saccharomyces cerevisiae, UniProt P25339 537-888)
T1 sequence: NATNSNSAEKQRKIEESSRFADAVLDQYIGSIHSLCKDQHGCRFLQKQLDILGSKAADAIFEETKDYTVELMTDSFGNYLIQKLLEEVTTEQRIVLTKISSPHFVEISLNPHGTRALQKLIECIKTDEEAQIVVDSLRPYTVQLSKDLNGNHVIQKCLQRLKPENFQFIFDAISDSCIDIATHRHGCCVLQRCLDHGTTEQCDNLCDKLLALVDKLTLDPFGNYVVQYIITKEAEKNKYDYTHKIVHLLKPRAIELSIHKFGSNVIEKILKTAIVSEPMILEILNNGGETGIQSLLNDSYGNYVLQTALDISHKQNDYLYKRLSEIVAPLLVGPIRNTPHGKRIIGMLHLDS
experimentDescription: Mg; RNA-MaP; 20 mM Na-HEPES pH 7.4, 30 mM KOAc, 0.75 mM MgCl2, 0.1% Tween-20, 5% glycerol, 0.1 mg/mL BSA, 2 mM DTT; 25 C; 0.0125-409.6 nM protein
measurementParameters: tags: N-His6-TEV cleaved; C-SNAP kept, Cy3B-labelled; label: tethered on chip by stalled RNA polymerase
# log scale: pKd equals minus log10 of the concentration in mol/L

Ie_S2_P5E.1_K5.1_C5.1_H5.1_A5.1_F5.1_[+9TTCCT]_T5.1 (ssRNA) RNA: UUUGAUUAAUAUGAUAUCGUUCUUUCUUGUAUUAUUUUCCUAUUCUUUCUCGAUAUCAUAUUAAUCUUU | 8.11
Ie_S4_P5E.1_K5.1_C5.1_H5.1_[+4CCTC]_A5.1_F5.1_T5.1 (ssRNA) RNA: UUUGACAACUGAUCGUUCUUUCUUGUACCUCUUAUUAUUCUUUCUCGAUCAGUUGUCUUU | 8.12
UCUCUUAUUGUAUAUAUGUCUCUU (ssRNA) [Id_ii_S1_P3E.2_K3.1_C3.2_[C-2A]_H3.1_A3.1_F3.1_T3.2_[A10G]] | 7.91
UCUCUUUUUGUAUAUAGUUCUCUU (ssRNA) [Id_ii_S1_P3E.2_K3.1_C3.2_[C-2T]_H3.1_A3.1_F3.1_T3.2_[T9G]_[A10T]] | 8.38
UCUCUUCUUAUAUAUUAUGUCUCUU (ssRNA) [Id_ii_S1_P4E.3_K4.2_C4.2_H4.2_A4.1_F4.1_T4.2_[G10T]_[T11G]] | 7.92
Ie_S4_P4E.1_K4.1_C4.1_H4.1_[+3CCTC]_A4.1_F4.1_T4.1 (ssRNA) RNA: UUUGACAACUGAUCGUUCUUUCUUGUCCUCAUAUUAUUCUUUCUCGAUCAGUUGUCUUU | 7.18

Incoming: Given Ie_S2_P3E.2_K3.1_C3.2_H3.1_A3.1_F3.1_[+8T]_T3.2 (ssRNA) RNA: UUUGAUUAAUAUGAUAUCGUUCUUUCUCUUGUAUAUAUUAUUCUUUCUCGAUAUCAUAUUAAUCUUU , state its recorded pKd.
Outgoing: 8.78

Incoming: Given UCUCUUACUAUAUAUAUGUCUCUU (ssRNA) [Id_ii_S1_P3E.3_K3.2_C3.2_[C-2A]_[T-1C]_H3.2_A3.1_F3.1_T3.2_[A10G]] , state its recorded pKd.
Outgoing: 6.01

Incoming: Given UCUCUUUUACACUAUUAACUCUCUU (ssRNA) [Id_ii_S1_P4E.4_K4.3_C4.2_[C-2T]_H4.3_A4.1_F4.1_T4.2_[G10A]_[T11C]] , state its recorded pKd.
Outgoing: 6.01

Incoming: Given ACAAACAUACACUAUACCACAAAC (ssRNA) [Id_ii_S3_P3E.4_K3.3_C3.2_[C-2A]_H3.3_A3.1_F3.1_T3.2_[T9C]_[A10C]] , state its recorded pKd.
Outgoing: 5.75
